tested on: K-562; test: SRB colorimetric assay of cell growth and viability, K-562; type: cell-based, human; details: 48 hours exposure; read-out: LC50 K-562
Where a SMILES comes first, the peptide text is derived from it. Bridges are numbered along the chain shown (N, C = ends). [ ]: non-standard residue; d: D form. The star is where a group is joined. d(aIle) = CC[C@H](C)[C@@H](N)C(=O)O; d(aThr) = C[C@@H](O)[C@@H](N)C(=O)O; hCha = N[C@@H](CCC1CCCCC1)C(=O)O; Hexanoyl(5-Me) = CC(C)CCCC(=O)*; Orn = NCCC[C@H](N)C(=O)O; Dhb = C/C=C(\N)C(=O)O
Quick reference: CC50 of the listed items.

molecule	target_or_test_system	relation	CC50, µM
C/C=C1\NC(=O)[C@H](Cc2ccccc2)NC(=O)[C@@H](C(C)C)NC(=O)[C@@H]([C@@H](C)CC)NC(=O)[C@H](NC(=O)[C@H](NC(=O)[C@H](CCCN)NC(=O)[C@H]2CCCN2C(=O)[C@H](NC(=O)[C@H](NC(=O)[C@@H](NC(=O)[C@H](NC(=O)CCCC(C)C)C(C)C)[C@@H](C)O)C(C)C)C(C)C)[C@@H](C)CC)[C@@H](C)OC(=O)[C@H](C(C)C)NC1=O [Compound 46, [D-Val^11]-KF]	K-562	≥	6.77
C/C=C1\NC(=O)[C@H](Cc2ccccc2)NC(=O)[C@@H](C(C)C)NC(=O)[C@@H]([C@@H](C)CC)NC(=O)[C@H](NC(=O)[C@H](NC(=O)[C@H](CCCN)NC(=O)[C@H]2CCCN2C(=O)[C@H](NC(=O)[C@@H](NC(=O)[C@@H]2CCCN2C(=O)CCCC(C)C)C(C)C)C(C)C)[C@@H](C)CC)[C@@H](C)OC(=O)[C@H](C(C)C)NC1=O [Compound 55, [Pro^12, noD-Val^13]-KF] ({Hexanoyl(5-Me)}-PV[dV][dP][Orn][d(aIle)][d(aThr)][d(aIle)][dV]F[Dhb]V; ester 7-C)	K-562	=	7.27
C/C=C1\NC(=O)[C@H](Cc2ccccc2)NC(=O)[C@@H](C(C)C)NC(=O)[C@@H]([C@@H](C)CC)NC(=O)[C@H](NC(=O)[C@H](NC(=O)[C@H](CCCN)NC(=O)[C@H]2CCCN2C(=O)[C@H](NC(=O)[C@@H](NC(=O)[C@@H](NC(=O)[C@H](NC(=O)c2ccccc2)C(C)C)[C@@H](C)O)C(C)C)C(C)C)[C@@H](C)CC)[C@@H](C)OC(=O)[C@H](C(C)C)NC1=O [Compound 20, [Bza^14]-KF]	K-562	=	6.8
C/C=C1\NC(=O)[C@H](Cc2ccccc2)NC(=O)[C@@H](C(C)C)NC(=O)[C@@H]([C@@H](C)CC)NC(=O)[C@H](NC(=O)[C@H](NC(=O)[C@H](CCCN)NC(=O)[C@H]2CCCN2C(=O)[C@H](NC(=O)[C@@H](NC(=O)[C@@H](NC(=O)[C@H](NC(=O)CCCC(C)C)C(C)C)[C@@H](C)O)[C@@H](C)O)C(C)C)[C@@H](C)CC)[C@@H](C)OC(=O)[C@H](C(C)C)NC1=O [Compound 50, [Thr^11]-KF] ({Hexanoyl(5-Me)}-[dV]TT[dV][dP][Orn][d(aIle)][d(aThr)][d(aIle)][dV]F[Dhb]V; ester 8-C)	K-562	≥	6.76
C/C=C1\NC(=O)[C@H](Cc2ccccc2)NC(=O)[C@@H](C(C)C)NC(=O)[C@@H]([C@@H](C)CC)NC(=O)[C@H](NC(=O)[C@H](NC(=O)[C@H](CCCN)NC(=O)[C@H]2CCCN2C(=O)[C@H](NC(=O)[C@H](CCC2CCCCC2)NC(=O)[C@@H](NC(=O)[C@H](NC(=O)CCCC(C)C)C(C)C)[C@@H](C)O)C(C)C)[C@@H](C)CC)[C@@H](C)OC(=O)[C@H](C(C)C)NC1=O [Compound 9, [hCh^11]-KF] ({Hexanoyl(5-Me)}-[dV]T[hCha][dV][dP][Orn][d(aIle)][d(aThr)][d(aIle)][dV]F[Dhb]V; ester 8-C)	K-562	=	6.47
C/C=C1\NC(=O)[C@H](Cc2ccccc2)NC(=O)[C@@H](C(C)C)NC(=O)[C@@H](C(C)CC)NC(=O)[C@H](NC(=O)[C@H](NC(=O)[C@H](CCCN)NC(=O)[C@H]2CCCN2C(=O)[C@H](NC(=O)[C@@H](NC(=O)[C@@H](NC(=O)[C@H](NC(=O)CCC(C)CC)C(C)C)C(C)O)C(C)C)C(C)C)C(C)CC)C(C)OC(=O)[C@H](C(C)C)NC1=O (stereo partly drawn)	K-562	=	5.4

====

Entries annotated with measured TGI MEL-28
tested on: SK-MEL-28; assay: SRB colorimetric assay of cell growth and viability, SK-MEL-28; assay type: cell-based, human; conditions: 48 hours exposure
Where a SMILES comes first, the peptide text is derived from it. Bridges are numbered along the chain shown (N, C = ends). [ ]: non-standard residue; d: D form. The star is where a group is joined. d(aIle) = CC[C@H](C)[C@@H](N)C(=O)O; d(aThr) = C[C@@H](O)[C@@H](N)C(=O)O; Hexanoyl(5-Me) = CC(C)CCCC(=O)*; Dhb = C/C=C(\N)C(=O)O

compound	TGI MEL-28
C/C=C1\NC(=O)[C@H](Cc2ccccc2)NC(=O)[C@@H](C(C)C)NC(=O)[C@@H]([C@@H](C)CC)NC(=O)[C@H](NC(=O)[C@H](NC(=O)[C@H](CCCN)NC(=O)[C@H]2CCCN2C(=O)[C@H](NC(=O)[C@H](NC(=O)[C@@H](NC(=O)[C@H](NC(=O)CCCC(C)C)C(C)C)[C@@H](C)O)C(C)C)C(C)C)[C@@H](C)CC)[C@@H](C)OC(=O)[C@H](C(C)C)NC1=O [Compound 46, [D-Val^11]-KF]	6.77E−06 Molar
C/C=C1\NC(=O)[C@H](Cc2ccccc2)NC(=O)[C@@H](C(C)C)NC(=O)[C@@H]([C@@H](C)CC)NC(=O)[C@H](NC(=O)[C@H](NC(=O)[C@H](CCC(=O)O)NC(=O)[C@H]2CCCN2C(=O)[C@H](NC(=O)[C@@H](NC(=O)[C@@H](NC(=O)[C@H](NC(=O)CCCC(C)C)C(C)C)[C@@H](C)O)C(C)C)C(C)C)[C@@H](C)CC)[C@@H](C)OC(=O)[C@H](C(C)C)NC1=O [Compound 4, [Glu^8]-KF] ({Hexanoyl(5-Me)}-[dV]TV[dV][dP]E[d(aIle)][d(aThr)][d(aIle)][dV]F[Dhb]V; ester 8-C)	6.70E−06 Molar
C/C=C1\NC(=O)[C@H](Cc2ccccc2)NC(=O)[C@@H](C(C)C)NC(=O)[C@@H]([C@@H](C)CC)NC(=O)[C@H](NC(=O)[C@H](NC(=O)[C@H](CCCN)NC(=O)[C@H]2CCCN2C(=O)[C@H](NC(=O)[C@@H](NC(=O)[C@@H](NC(=O)[C@H](NC(=O)c2ccc(C)cc2)C(C)C)[C@@H](C)O)C(C)C)C(C)C)[C@@H](C)CC)[C@@H](C)OC(=O)[C@H](C(C)C)NC1=O [Compound 19, [p-MeBza^14]-KF]	2.24E−06 Molar

====

# reported LC50 (concentration causing 50% net cell killing); entries follow
system: IGROV-1; assay: SRB colorimetric assay of cell growth and viability, IGROV-1; type: cell-based, human; details: 48 hours exposure
Where a SMILES comes first, the peptide text is derived from it. Bridges are numbered along the chain shown (N, C = ends). [ ]: non-standard residue; d: D form. The star is where a group is joined. d(aIle) = CC[C@H](C)[C@@H](N)C(=O)O; d(aThr) = C[C@@H](O)[C@@H](N)C(=O)O; Hexanoyl(5-Me) = CC(C)CCCC(=O)*; Orn = NCCC[C@H](N)C(=O)O; Dhb = C/C=C(\N)C(=O)O
measured_endpoint: LC50 (concentration causing 50% net cell killing)

compound	value_reported
C/C=C1\NC(=O)[C@H](Cc2ccccc2)NC(=O)[C@@H](C(C)C)NC(=O)[C@@H]([C@@H](C)CC)NC(=O)[C@H](NC(=O)[C@H](NC(=O)[C@H](CCCN)NC(=O)[C@H]2CCCN2C(=O)[C@H](NC(=O)[C@@H](NC(=O)[C@@H](NC(=O)[C@H](NC(=O)CCCC(C)C)C(C)C)[C@@H](C)O)C(C)C)C(C)C)[C@@H](C)CC)[C@H](C)OC(=O)[C@H](C(C)C)NC1=O [Compound 2, [D-Thr^6]-KF]	≥ 6.77 µM
C/C=C1\NC(=O)[C@H](Cc2ccccc2)NC(=O)[C@@H](C(C)C)NC(=O)[C@@H]([C@@H](C)CC)NC(=O)[C@H](NC(=O)[C@H](NC(=O)[C@H](CCCN)NC(=O)[C@H]2CCCN2C(=O)[C@H](NC(=O)[C@@H](NC(=O)[C@H](CCCN)NC(=O)CCCC(C)C)C(C)C)C(C)C)[C@@H](C)CC)[C@@H](C)OC(=O)[C@H](C(C)C)NC1=O [Compound 57, [Orn^12, noD-Val^13]-KF] ({Hexanoyl(5-Me)}-[Orn]V[dV][dP][Orn][d(aIle)][d(aThr)][d(aIle)][dV]F[Dhb]V; ester 7-C)	≥ 7.18 µM
C/C=C1\NC(=O)[C@H](Cc2ccccc2)NC(=O)[C@@H](C(C)C)NC(=O)[C@@H]([C@@H](C)CC)NC(=O)[C@H](NC(=O)[C@H](NC(=O)[C@H](CCCN)NC(=O)[C@H]2CCCN2C(=O)[C@H](NC(=O)CCCC(C)C)C(C)C)[C@@H](C)CC)[C@@H](C)OC(=O)[C@H](C(C)C)NC1=O [Compound 31, [noVal^11, noThr^12, noD-Val^13]-KF] ({Hexanoyl(5-Me)}-[dV][dP][Orn][d(aIle)][d(aThr)][d(aIle)][dV]F[Dhb]V; ester 5-C)	6.25 µM
